- target-under-test: T1, [2Fe-2S]-IscR (wild type, anaerobically isolated) (Escherichia coli K12, UniProt P0AGK8 1-162)
- T1 sequence: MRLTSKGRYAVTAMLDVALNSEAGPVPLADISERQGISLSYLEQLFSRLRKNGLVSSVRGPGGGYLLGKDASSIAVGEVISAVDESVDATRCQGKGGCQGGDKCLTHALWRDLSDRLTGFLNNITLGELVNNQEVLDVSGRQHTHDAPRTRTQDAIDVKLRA
- assay-text: fluorescence anisotropy; [2Fe-2S]1+ cluster, anaerobic, no PMS; apparent Kd; Anisotropy: 40 mM Tris-Cl pH 7.9, 30 mM KCl, 5% glycerol, anaerobic unless stated, temperature not stated for the binding step; EMSA: 40 mM Tris-Cl pH 7.9, 150
- test-context: protein: recombinant; chain copies: 2; label: 5' Texas Red on strand 1; blunt

{"binder": "iscRB type 1 site 30 bp (dsDNA) DNA 1: AAATAGTTGACCATTTTACTCGGGAATGTC DNA 2: GACATTCCCGAGTAAAATGGTCAACTATTT", "Kd": "22 nM"}

These data points were gathered from paper PMC12594620.
